System: BT-549
ASSAY_METHOD_TEXT: normalised response (% of control), CellTiter-Glo; higher = more viable cells (100 = DMSO, 0 = benzethonium chloride kill control)
EXPERIMENTAL_PARAMETERS: incubation time: 72 h
normalised response listing for selected compounds.
QUANTITY: normalised response (%)

[[record]]
compound = "COc1ccc(S(=O)(=O)Nc2cccnc2Nc2ccc(O)cc2)cc1 [ABT-751] (10 nM)"
display_unit = "%"
meas_value = 95.8

[[record]]
compound = "CC(C)(C)c1nc(-c2cccc(NS(=O)(=O)c3c(F)cccc3F)c2F)c(-c2ccnc(N)n2)s1 [Dabrafenib] (2.5 nM)"
display_unit = "%"
meas_value = 99.1

[[record]]
compound = "COc1cc(Nc2c(C#N)cnc3cc(OCCCN4CCN(C)CC4)c(OC)cc23)c(Cl)cc1Cl [Bosutinib] (10 nM)"
display_unit = "%"
meas_value = 98.4

[[record]]
compound = "Cc1nc(C(=O)NCC(=O)O)c(O)c2ccc(Oc3ccccc3)cc12 [FG-4592] (1 nM)"
display_unit = "%"
meas_value = 104

[[record]]
compound = "CCn1c(C(=O)N(C2CC2)C2CC2)cc2c3c(ncn3C)c(Nc3cc(C)n(C)n3)nc21 (1 nM)"
display_unit = "%"
meas_value = 103

[[record]]
compound = "CC1(COc2ccc3c(c2)ncn3-c2ccc3cccc(N4CCC(N)CC4)c3n2)COC1 [Crenolanib] (10 nM)"
display_unit = "%"
meas_value = 95.6

[[record]]
compound = "CC[C@H](CO)Nc1nc(NCc2ccccc2)c2ncn(C(C)C)c2n1 [Seliciclib] (1 nM)"
display_unit = "%"
meas_value = 97.2

[[record]]
compound = "O=[N+]([O-])c1ccc2c(c1)S(=O)(=O)C=C2 [Stattic] (5 nM)"
display_unit = "%"
meas_value = 105

[[record]]
compound = "CO[C@@]12[C@H](COC(N)=O)C3=C(C(=O)C(C)=C(N)C3=O)N1C[C@@H]1N[C@@H]12 [Mitomycin C] (10 nM)"
display_unit = "%"
meas_value = 98.3

[[record]]
compound = "CC1(COc2ccc3c(c2)ncn3-c2ccc3cccc(N4CCC(N)CC4)c3n2)COC1 [Crenolanib] (1 nM)"
display_unit = "%"
meas_value = 110

[[record]]
compound = "C=CCN(/C=C1/C(=O)O[C@H](COC)[C@@]2(C)C1=C(O)C(=O)C1=C2[C@H](OC(C)=O)C[C@]2(C)C(=O)CC[C@@H]12)CC=C [Sonolisib] (1 nM)"
display_unit = "%"
meas_value = 103

[[record]]
compound = "CN[C@@H](C)C(=O)N[C@H]1CN(C(=O)CC(C)C)CC[C@H]2CC[C@@H](C(=O)NC(c3ccccc3)c3ccccc3)N2C1=O [AT-406] (1 nM)"
display_unit = "%"
meas_value = 106

[[record]]
compound = "CCn1c(C(=O)N(C2CC2)C2CC2)cc2c3c(ncn3C)c(Nc3cc(C)n(C)n3)nc21 (1000 nM)"
display_unit = "%"
meas_value = 98.2

[[record]]
compound = "Cc1cc(Nc2nc(N[C@@H](C)c3ncc(F)cn3)ncc2Cl)[nH]n1 [AZD1480] (1 nM)"
display_unit = "%"
meas_value = 92.5

[[record]]
compound = "CC(O)(CS(=O)(=O)c1ccc(F)cc1)C(=O)Nc1ccc(C#N)c(C(F)(F)F)c1 (stereo not given) [Bicalutamide] (10 nM)"
display_unit = "%"
meas_value = 99.5


* * *

normalised response listing for selected compounds.
System: HCC1143
ASSAY_METHOD_TEXT: normalised response (% of control), CellTiter-Glo; higher = more viable cells (100 = DMSO, 0 = benzethonium chloride kill control)
EXPERIMENTAL_PARAMETERS: incubation time: 72 h
QUANTITY: normalised response (%)

[[record]]
compound = "COc1cc(Nc2c(C#N)cnc3cc(OCCCN4CCN(C)CC4)c(OC)cc23)c(Cl)cc1Cl [Bosutinib] (10 nM)"
target_of_assay = "HCC1143"
meas_value = 100

[[record]]
compound = "CN[C@@H](C)C(=O)N[C@H]1CN(C(=O)CC(C)C)CC[C@H]2CC[C@@H](C(=O)NC(c3ccccc3)c3ccccc3)N2C1=O [AT-406] (1 nM)"
target_of_assay = "HCC1143"
meas_value = 109

[[record]]
compound = "CO[C@@]12[C@H](COC(N)=O)C3=C(C(=O)C(C)=C(N)C3=O)N1C[C@@H]1N[C@@H]12 [Mitomycin C] (1000 nM)"
target_of_assay = "HCC1143"
meas_value = 99.4

[[record]]
compound = "Cc1cn(-c2cc(NC(=O)c3ccc(C)c(Nc4nccc(-c5cccnc5)n4)c3)cc(C(F)(F)F)c2)cn1 [Nilotinib] (10 nM)"
target_of_assay = "HCC1143"
meas_value = 96.5

[[record]]
compound = "O=C(CCCCCCC(=O)Nc1ccccc1)NO [Vorinostat] (1000 nM)"
target_of_assay = "HCC1143"
meas_value = 90.2

[[record]]
compound = "CC(C)(C)NC(=O)[C@H]1CC[C@H]2[C@@H]3CC[C@H]4NC(=O)C=C[C@]4(C)[C@H]3CC[C@]12C [Finasteride] (10 nM)"
target_of_assay = "HCC1143"
meas_value = 108

[[record]]
compound = "CCNC(=O)c1noc(-c2cc(C(C)C)c(O)cc2O)c1-c1ccc(CN2CCOCC2)cc1 [NVP-AUY922] (100 nM)"
target_of_assay = "HCC1143"
meas_value = 36.8

[[record]]
compound = "CO[C@@H]1[C@H](N(C)C(=O)c2ccccc2)C[C@H]2O[C@]1(C)n1c3ccccc3c3c4c(c5c6ccccc6n2c5c31)C(=O)NC4 [Midostaurin] (1000 nM)"
target_of_assay = "HCC1143"
meas_value = 55.9

[[record]]
compound = "CCN(CC)CCCC(C)Nc1ccnc2cc(Cl)ccc12 (stereo not given) [Chloroquine] (10 nM)"
target_of_assay = "HCC1143"
meas_value = 104

[[record]]
compound = "CN[C@@H](C)C(=O)N[C@H]1CN(C(=O)CC(C)C)CC[C@H]2CC[C@@H](C(=O)NC(c3ccccc3)c3ccccc3)N2C1=O [AT-406] (10 nM)"
target_of_assay = "HCC1143"
meas_value = 95.5

[[record]]
compound = "O=C(CCCCCCC(=O)Nc1ccccc1)NO [Vorinostat] (10 nM)"
target_of_assay = "HCC1143"
meas_value = 98.4

[[record]]
compound = "CCn1c(C(=O)N(C2CC2)C2CC2)cc2c3c(ncn3C)c(Nc3cc(C)n(C)n3)nc21 (10 nM)"
target_of_assay = "HCC1143"
meas_value = 104

[[record]]
compound = "O=[N+]([O-])c1ccc2c(c1)S(=O)(=O)C=C2 [Stattic] (5 nM)"
target_of_assay = "HCC1143"
meas_value = 101

[[record]]
compound = "CC[C@H](CO)Nc1nc(NCc2ccccc2)c2ncn(C(C)C)c2n1 [Seliciclib] (1 nM)"
target_of_assay = "HCC1143"
meas_value = 101

[[record]]
compound = "Nc1ccn([C@@H]2O[C@H](CO)[C@@H](O)C2(F)F)c(=O)n1 [Gemcitabine] (1 nM)"
target_of_assay = "HCC1143"
meas_value = 100


* * *

System: BT-549
ASSAY_METHOD_TEXT: normalised viability (% of control), CellTiter-Blue; higher = more viable cells (about 100 = DMSO control)
EXPERIMENTAL_PARAMETERS: 100 nM; incubation time: 72 h
QUANTITY: normalised viability (%)

[[record]]
compound = "CC1(C)CCC(c2ccc(Cl)cc2)=C(CN2CCN(c3ccc(C(=O)NS(=O)(=O)c4ccc(N[C@H](CCN5CCOCC5)CSc5ccccc5)c(S(=O)(=O)C(F)(F)F)c4)cc3)CC2)C1"
meas_value = 97.2

[[record]]
compound = "CO[C@@H]1[C@H](N(C)C(=O)c2ccccc2)C[C@H]2O[C@]1(C)n1c3ccccc3c3c4c(c5c6ccccc6n2c5c31)C(=O)NC4"
meas_value = 88.1

[[record]]
compound = "COc1c2occc2cc2ccc(=O)oc12"
meas_value = 109

[[record]]
compound = "COc1ccc(S(=O)(=O)Nc2cccnc2Nc2ccc(O)cc2)cc1"
meas_value = 89

[[record]]
compound = "CO[C@@]12[C@H](COC(N)=O)C3=C(C(=O)C(C)=C(N)C3=O)N1C[C@@H]1N[C@@H]12"
meas_value = 74.4

[[record]]
compound = "C=CCN(/C=C1/C(=O)O[C@H](COC)[C@@]2(C)C1=C(O)C(=O)C1=C2[C@H](OC(C)=O)C[C@]2(C)C(=O)CC[C@@H]12)CC=C"
meas_value = 98.4


* * *

Tested on: HDQ-P1
ASSAY_METHOD_TEXT: drug sensitivity score (DSS), CellTiter-Glo (DSS (AUC-based score)); higher = stronger drug effect (viability inhibition or cytotoxicity); extreme values may be limits of the assay
EXPERIMENTAL_PARAMETERS: incubation time: 72 h
QUANTITY: drug sensitivity score

[[record]]
compound = "CCn1c(C(=O)N(C2CC2)C2CC2)cc2c3c(ncn3C)c(Nc3cc(C)n(C)n3)nc21"
target_of_assay = "HDQ-P1"
meas_value = 0

[[record]]
compound = "Cc1cc(Nc2nc(N[C@@H](C)c3ncc(F)cn3)ncc2Cl)[nH]n1"
target_of_assay = "HDQ-P1"
meas_value = 0

[[record]]
compound = "Cc1cn(-c2cc(NC(=O)c3ccc(C)c(Nc4nccc(-c5cccnc5)n4)c3)cc(C(F)(F)F)c2)cn1"
target_of_assay = "HDQ-P1"
meas_value = 0

